Origin of values: patent US10676446B2

system name: human ATX (autotaxin, ENPP2), His-tagged (Homo sapiens (Human), UniProt Q13822)
IC50 for assorted compounds
Response body: numeric value in nM, unit text excluded.

Example entries begin here.
compound | system name | IC50 / nM
CC(=O)N1CCN(c2ccc3ncn(CC(=O)NCc4noc(-c5ccc(Cl)cc5)n4)c(=O)c3c2)CC1 | human ATX (autotaxin, ENPP2), His-tagged (Homo sapiens (Human), UniProt Q13822) | 51
O=C(Cn1cnc2ccc(N3CCN(CC4CCOCC4)CC3)cc2c1=O)NCc1ccc(Cl)c(Cl)c1 | human ATX (autotaxin, ENPP2), His-tagged (Homo sapiens (Human), UniProt Q13822) | 44
CCN(CC)C(=O)CN1CCN(c2ccc3ncn(CC(=O)N(C)Cc4ccc(Cl)c(Cl)c4)c(=O)c3c2)CC1 | human ATX (autotaxin, ENPP2), His-tagged (Homo sapiens (Human), UniProt Q13822) | 34
COCCOCC(=O)N1CCC(c2ccc3ncn(CC(=O)N(C)Cc4ccc(Cl)c(Cl)c4)c(=O)c3c2)CC1 | human ATX (autotaxin, ENPP2), His-tagged (Homo sapiens (Human), UniProt Q13822) | 627
CC(=O)N1CCN(c2ccc3ncn(CC(=O)NCc4cc(-c5ccc(Cl)cc5)no4)c(=O)c3c2)CC1 | human ATX (autotaxin, ENPP2), His-tagged (Homo sapiens (Human), UniProt Q13822) | 456

Query: Item `CC(=O)N1CCN(c2ccc3ncn(CC(=O)NCc4ccc(Cl)c(OC(F)(F)F)c4)c(=O)c3c2)CC1` with human ATX (autotaxin, ENPP2), His-tagged (Homo sapiens (Human), UniProt Q13822) - IC50?
Result: 4

Query: Record `CC(=O)N1CCN(c2ccc3ncn(CC(=O)NCc4ccc(Cl)cc4Cl)c(=O)c3c2)CC1` : what is its IC50 with human ATX (autotaxin, ENPP2), His-tagged (Homo sapiens (Human), UniProt Q13822)?
Result: 72

Query: # get_value(readout= IC50, system= human ATX (autotaxin, ENPP2), His-tagged (Homo sapiens (Human), UniProt Q13822)) for CN(Cc1ccc(Cl)c(Cl)c1)C(=O)Cn1cnc2ccc(C3CCN(C(=O)C(O)CO)CC3)cc2c1=O (stereo not drawn)
Result: 36

Query: Find the measured IC50: item `CC(=O)N1CCN(c2ccc3ncn(CC(=O)NCc4ccc(C)c(Cl)c4)c(=O)c3c2)CC1` , target or system human ATX (autotaxin, ENPP2), His-tagged (Homo sapiens (Human), UniProt Q13822).
Result: 140

Query: Provide value of IC50 for this record tested with human ATX (autotaxin, ENPP2), His-tagged (Homo sapiens (Human), UniProt Q13822): `CC(=O)N1CCN(c2ccc3ncn(CC(=O)NCc4ccc(C(F)(F)F)nc4)c(=O)c3c2)CC1`
Result: 207

Query: Please tell me: IC50 of CN(Cc1ccc(Cl)c(Cl)c1)C(=O)Cn1cnc2ccc(C3CCN(C(=O)C4CCCO4)CC3)cc2c1=O (stereo not drawn) , system human ATX (autotaxin, ENPP2), His-tagged (Homo sapiens (Human), UniProt Q13822)?
Result: 5

Query: # query: IC50 | item `CN(Cc1ccc(C#N)c(Cl)c1)C(=O)Cn1cnc2ccc(C3CCN(C(=O)C4CC(F)(F)C4)CC3)cc2c1=O` | system: human ATX (autotaxin, ENPP2), His-tagged (Homo sapiens (Human), UniProt Q13822)
Result: 47

Query: Param readout = IC50; param system = human ATX (autotaxin, ENPP2), His-tagged (Homo sapiens (Human), UniProt Q13822); param query = `CC(=O)N1CCC(c2cc3c(=O)n(CC(=O)N(C)Cc4ccc(C#N)c(Cl)c4)cnc3cn2)CC1` ; response: value
Result: 1

Query: Param readout= IC50; system= human ATX (autotaxin, ENPP2), His-tagged (Homo sapiens (Human), UniProt Q13822); entry= CC(=O)N1CCN(c2ccc3ncn(CC(=O)NC(CC(=O)NCC(C)C)c4ccc(C(F)(F)F)cc4)c(=O)c3c2)CC1 (stereo not drawn) ; returns value.
Result: 979

Query: Given the entry CN(Cc1ccc(C#N)c(Cl)c1)C(=O)Cn1cnc2ccc(N3CCN(CC4CCOC4)CC3)cc2c1=O (stereo not drawn) , what IC50 was observed with human ATX (autotaxin, ENPP2), His-tagged (Homo sapiens (Human), UniProt Q13822)?
Result: 26

----------
system name: human ATX (autotaxin, ENPP2), His-tagged (Homo sapiens (Human), UniProt Q13822)
// returns NO unless IC50 is strictly below 20 nM, in which case YES

// below: answered compounds
compound | class name
CC(=O)N1CCN(c2ccc3ncn(CC(=O)N(C)Cc4cc(F)c(C#N)c(F)c4)c(=O)c3c2)CC1 | YES
CN(Cc1ccc(Cl)c(Cl)c1)C(=O)Cn1cnc2ccc(C3CCN(C(=O)C4CCOC4)CC3)cc2c1=O (stereo not shown) | YES

Query: Item `CC(=O)N1CCN(c2ccc3ncn(CC(=O)NCc4ccc(OC(F)(F)F)cc4)c(=O)c3c2)CC1` : IC50 beneath 20 nM, strictly?
Result: YES

Query: Determine if CC(=O)N1CCN(c2ccc3ncn(C(C)C(=O)NCc4ccc(Cl)c(Cl)c4)c(=O)c3c2)CC1 (stereo not shown) shows IC50 strictly lower than 20 nM.
Result: YES

Query: Is it true that IC50 reported for `CC(C)C(=O)N1CCN(c2ccc3ncn(CC(=O)N(C)Cc4ccc(Cl)c(Cl)c4)c(=O)c3c2)CC1` is less than 20 nM?
Result: YES

Query: Record `CC(=O)N1CCC(c2ccc3ncn(CC(=O)NCc4ccc(C(F)(F)F)cc4)c(=O)c3c2)CC1` : is its IC50 strictly below 20 nM?
Result: NO

Query: Check if IC50 falls below 20 nM for CNC(=O)CC(NC(=O)Cn1cnc2ccc(N3CCN(C(C)=O)CC3)cc2c1=O)c1ccc(Cl)c(Cl)c1 (stereo not shown) .
Result: NO

----------
system name: human ATX (autotaxin, ENPP2), His-tagged (Homo sapiens (Human), UniProt Q13822)
Definition: the class of an entry is the range in class A = under 0.008 µM, class B = from 0.008 µM up to 0.06 µM, class C = 0.06 µM and over that contains its IC50.

Here are 5 compounds together with their reported answers.
compound | class name
CN(Cc1ccc(Cl)c(Cl)c1)C(=O)Cn1cnc2ccc(C3CCN(C(=O)c4cnco4)CC3)cc2c1=O | class B
CC(C)[C@@H](O)C(=O)N1CCC(c2ccc3ncn(CC(=O)N(C)Cc4ccc(Cl)c(Cl)c4)c(=O)c3c2)CC1 | class B
CC(=O)N1CCC(c2ccc3ncn(CC(=O)NCc4ccc(F)c(C(F)(F)F)c4)c(=O)c3c2)CC1 | class B
O=C(Cn1cnc2ccc(N3CCN(S(=O)(=O)C4CCCCC4)CC3)cc2c1=O)NCc1ccc(Cl)c(Cl)c1 | class B
CC(=O)N1CCN(c2ccc3ncn(CC(=O)NCc4ccc(Cl)cn4)c(=O)c3c2)CC1 | class C

Query: Determine which band this compound sits in: `CC(=O)N1CCN(c2ccc3ncn(CC(=O)NCc4ccnc(Cl)c4)c(=O)c3c2)CC1`
Result: class C

Query: Hi there! Could you help me figure out the category for `O=C(Cn1cnc2ccc(N3CCN(Cc4ncc[nH]4)CC3)cc2c1=O)NCc1ccc(Cl)c(Cl)c1` please?
Result: class C

Query: Which category fits this record: `CC(=O)N1CCN(c2ccc3ncn(CC(=O)NCc4cccc(C#N)c4C)c(=O)c3c2)CC1`
Result: class C

Query: # bin lookup: classify `CC(=O)N1CCN(c2ccc3ncn(CC(=O)NCc4ccc(C#N)cc4OCC(F)(F)F)c(=O)c3c2)CC1` by its IC50
Result: class C

Query: Category of CN(Cc1ccc(C#N)c(Cl)c1)C(=O)Cn1cnc2ccc(C3CCN(C(=O)C4CC(F)C4)CC3)cc2c1=O (centres unmarked) , please.
Result: class A

Query: Which class is correct for the following compound? CN(Cc1ccc(Cl)c(Cl)c1)C(=O)Cn1cnc2ccc(N3CCN(C(=O)C4CC(Cl)C4)CC3)cc2c1=O (centres unmarked)
Result: class A

Query: Using the reported IC50, which band applies to `CC(=O)N1CCN(c2ccc3ncn(CC(=O)NCc4ccc(F)cc4)c(=O)c3c2)CC1` ?
Result: class C

----------
system name: human ATX (autotaxin, ENPP2), His-tagged (Homo sapiens (Human), UniProt Q13822)
pIC50: −log10 of the molar value.
Consider the following partition of reported pIC50 into named classes: small value = under 7, mid value = from 7 up to 8, large value = 8 and over

# example entries with known answers
compound smiles | class name
CC(=O)N1CCN(c2ccc3ncn(CC(=O)NCc4ccc(Cl)c(C(F)(F)F)c4)c(=O)c3c2)CC1 | mid value
CN(Cc1ccc(C#N)c(Cl)c1)C(=O)Cn1cnc2ccc(C3CCN(C(=O)CO)CC3)cc2c1=O | large value
O=C(Cn1cnc2ccc(N3CCN(C(=O)C4CCOCC4)CC3)cc2c1=O)NCc1ccc(Cl)c(Cl)c1 | small value
CN(Cc1ccc(Cl)c(Cl)c1)C(=O)Cn1cnc2ccc(C3CCN(C(=O)CS(N)(=O)=O)CC3)cc2c1=O | mid value
O=C(Cn1cnc2ccc(N3CCN(C(=O)C4CCCC4)CC3)cc2c1=O)NCc1ccc(Cl)c(Cl)c1 | large value

Query: Hi, small favor: classify `O=C(Cn1cnc2ccc(N3CCN(Cc4ccoc4C(=O)O)CC3)cc2c1=O)NCc1ccc(Cl)c(Cl)c1` by its pIC50 when you get a moment.
Result: small value

Query: Please classify: `CC(=O)N1CCN(c2ccc3ncn(CC(=O)NCCc4ccc(Cl)c(Cl)c4)c(=O)c3c2)CC1`
Result: small value
